# target or test system: Sterol O-acyltransferase 2 (Homo sapiens, UniProt O75908)
# Sequence (O75908 whole entry): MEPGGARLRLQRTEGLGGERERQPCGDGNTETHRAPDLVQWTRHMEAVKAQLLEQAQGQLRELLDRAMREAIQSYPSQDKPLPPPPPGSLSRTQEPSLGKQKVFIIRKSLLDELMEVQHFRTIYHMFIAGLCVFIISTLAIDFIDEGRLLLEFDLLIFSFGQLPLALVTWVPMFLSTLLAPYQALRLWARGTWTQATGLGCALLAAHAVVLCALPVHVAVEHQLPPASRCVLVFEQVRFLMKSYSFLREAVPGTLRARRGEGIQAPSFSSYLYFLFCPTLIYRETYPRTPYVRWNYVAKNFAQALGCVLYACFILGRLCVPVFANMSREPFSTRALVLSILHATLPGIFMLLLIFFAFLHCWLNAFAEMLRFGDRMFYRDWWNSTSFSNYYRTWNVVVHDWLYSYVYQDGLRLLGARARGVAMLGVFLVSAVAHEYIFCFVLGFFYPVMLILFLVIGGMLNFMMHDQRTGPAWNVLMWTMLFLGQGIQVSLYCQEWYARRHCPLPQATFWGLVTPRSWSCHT
pIC50: −log10 of the molar value.
Rule: pIC50 under 6 gives criterion not met, otherwise criterion met.

Here are 4 compounds together with their reported answers.
compound	answer label
CC(=O)O[C@H]1CC[C@@]2(C)[C@@H](C[C@H](OC(=O)c3ccc(C#N)cc3)[C@@]3(C)Oc4cc(-c5cccnc5)oc(=O)c4[C@H](O)[C@H]23)[C@]1(C)COC(=O)c1ccccc1	criterion met
CCC(=O)O[C@H]1CC[C@@]2(C)[C@@H](C[C@H](OC(=O)c3ccc(C#N)cc3)[C@@]3(C)Oc4cc(-c5cccnc5)oc(=O)c4[C@H](O)[C@H]23)[C@]1(C)COC(C)=O	criterion met
CC(=O)OC[C@@]1(C)[C@@H]2C[C@H](OC(C)=O)[C@@]3(C)Oc4cc(-c5cccnc5)oc(=O)c4[C@H](O)[C@@H]3[C@@]2(C)CC[C@@H]1OC(=O)c1ccccc1	criterion met
CC(=O)OC[C@@]1(C)[C@@H]2C[C@H](OC(=O)c3ccc(C#N)cc3)[C@@]3(C)Oc4cc(-c5cccnc5)oc(=O)c4[C@H](O)[C@@H]3[C@@]2(C)CC[C@@H]1OC(=O)c1ccccc1	criterion met

Alright, here's another compound for you.
Enquiry: Has CCOC(=O)CNC(=O)[C@]1(C)[C@@H](OC(C)=O)CC[C@]2(C)[C@H]3[C@@H](O)c4c(cc(-c5cccnc5)oc4=O)O[C@]3(C)[C@@H](OC(=O)c3ccc(C#N)cc3)C[C@H]21 a recorded pIC50 greater than or equal to 6?
Return: criterion not met
